- Tested on: Retinal dehydrogenase 2 (Homo sapiens)
- Test name: Inhibition of human recombinant ALDH1A2 assessed as remaining enzyme activity at 25 uM pre-incubated for 5 mins before acetaldehyde addition by continuous spectrometric assay relative to control
Readout: Activity

Worked cases, answers included:
COc1ccc(-c2cn3cccc(-c4cc(OC)c(OC)c(OC)c4)c3n2)cc1 :: 75 to 100%
COc1ccc(-c2cn3cccc(-c4ccc(F)cc4)c3n2)cc1 :: 75 to 100%
Clc1ccc(-c2cccn3cc(-c4ccccc4)nc23)cc1 :: 50 to 75%
COc1cccc(-c2cn3cccc(-c4ccc(-c5ccccc5)cc4)c3n2)c1 :: 75 to 100%

Consider the compound Cc1ccc(-c2cn3cccc(-c4ccccc4)c3n2)cc1 and give its measured Activity.
50 to 75%

Request: O=C(COc1ccc(-c2cccn3cc(-c4ccccc4)nc23)cc1)c1ccccc1
75 to 100%

Request: c1ccc(-c2cn3cccc(-c4ccccc4)c3n2)cc1
50 to 75%

Request: Fc1ccc(-c2cccn3cc(-c4ccccc4)nc23)cc1
25 to 50%

----------
- Tested on: Retinaldehyde dehydrogenase 3 (Homo sapiens)
- Test name: Inhibition of human recombinant ALDH1A3 assessed as remaining enzyme activity at 25 uM pre-incubated for 5 mins before acetaldehyde addition by continuous spectrometric assay relative to control
Readout: Activity

Worked cases, answers included:
COc1ccc(-c2cn3cccc(-c4ccc(F)cc4)c3n2)cc1 :: 75 to 100%
COc1ccc(-c2cn3cccc(-c4cc(OC)c(OC)c(OC)c4)c3n2)cc1 :: 75 to 100%
COC(=O)c1ccc(-c2cccn3cc(-c4ccccc4)nc23)cc1 :: 0 to 25%
Fc1ccc(-c2cccn3cc(-c4ccccc4)nc23)cc1 :: 25 to 50%

Consider the compound COc1ccc(-c2cn3cccc(-c4ccc(Cl)cc4)c3n2)cc1 and give its measured Activity.
75 to 100%

Request: Cc1ccc(-c2cn3cccc(-c4ccccc4)c3n2)cc1
50 to 75%

Request: COc1cccc(-c2cn3cccc(-c4ccc(Cl)cc4)c3n2)c1
50 to 75%

Request: COc1ccc(-c2cn3cccc(-c4ccc(-c5ccccc5)cc4)c3n2)cc1
75 to 100%

Request: c1ccc(-c2cn3cccc(-c4ccccc4)c3n2)cc1
50 to 75%

Request: COc1cccc(-c2cn3cccc(-c4ccc(-c5ccccc5)cc4)c3n2)c1
75 to 100%

Request: COC(=O)c1ccc(-c2cccn3cc(-c4ccc(OC)cc4)nc23)cc1
50 to 75%

Request: Cc1ccc(-c2cn3cccc(-c4ccc(F)cc4)c3n2)cc1
75 to 100%

Request: O=C(COc1ccc(-c2cccn3cc(-c4ccccc4)nc23)cc1)c1ccccc1
75 to 100%

Request: COc1cccc(-c2cn3cccc(-c4cc(OC)c(OC)c(OC)c4)c3n2)c1
75 to 100%

Request: COc1ccc(-c2cn3cccc(-c4cc(OC)cc(OC)c4)c3n2)cc1
75 to 100%

Request: COc1cccc(-c2cn3cccc(-c4ccc(F)cc4)c3n2)c1
50 to 75%

Request: Clc1ccc(-c2cccn3cc(-c4ccccc4)nc23)cc1
50 to 75%

Request: CC(C)Cc1ccc(-c2cccn3cc(-c4ccccc4)nc23)cc1
75 to 100%

Request: c1ccc(-c2ccc(-c3cccn4cc(-c5ccccc5)nc34)cc2)cc1
75 to 100%

Request: Cc1ccc(-c2cn3cccc(-c4ccc(Cl)cc4)c3n2)cc1
50 to 75%

----------
- Tested on: Retinal dehydrogenase 2 (Homo sapiens)
- Sequence (O94788 whole entry): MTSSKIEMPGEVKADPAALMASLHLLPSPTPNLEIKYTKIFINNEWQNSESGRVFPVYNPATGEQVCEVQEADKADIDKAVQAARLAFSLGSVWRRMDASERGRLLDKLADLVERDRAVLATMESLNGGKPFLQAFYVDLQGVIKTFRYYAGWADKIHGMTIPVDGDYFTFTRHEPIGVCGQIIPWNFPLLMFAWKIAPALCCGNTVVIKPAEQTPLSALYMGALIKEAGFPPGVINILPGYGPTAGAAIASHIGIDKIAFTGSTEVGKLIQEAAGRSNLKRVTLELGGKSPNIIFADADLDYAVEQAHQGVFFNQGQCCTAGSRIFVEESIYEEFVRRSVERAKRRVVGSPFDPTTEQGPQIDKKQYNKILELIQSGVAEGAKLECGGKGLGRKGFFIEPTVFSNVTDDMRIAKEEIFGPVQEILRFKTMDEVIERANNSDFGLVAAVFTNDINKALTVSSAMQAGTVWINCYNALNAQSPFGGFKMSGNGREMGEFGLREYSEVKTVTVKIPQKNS
- Test name: Inhibition of human recombinant ALDH1A2 pre-incubated for 5 mins before acetaldehyde addition by continuous spectrometric assay relative to control
- Details: read-out: IC50
The following compounds are shown together with reported IC50 values.
Give your result as the value with the unit written after it.

Clc1ccc(-c2cccn3cc(-c4ccccc4)nc23)cc1 :: 27.6 µM

Shift focus to the following entry.
Consider the compound c1ccc(-c2cn3cccc(-c4ccccc4)c3n2)cc1 and give its measured IC50.
61.4 µM

----------
- Tested on: Aldehyde dehydrogenase 1A1 (Homo sapiens)
- Sequence (P00352 whole entry): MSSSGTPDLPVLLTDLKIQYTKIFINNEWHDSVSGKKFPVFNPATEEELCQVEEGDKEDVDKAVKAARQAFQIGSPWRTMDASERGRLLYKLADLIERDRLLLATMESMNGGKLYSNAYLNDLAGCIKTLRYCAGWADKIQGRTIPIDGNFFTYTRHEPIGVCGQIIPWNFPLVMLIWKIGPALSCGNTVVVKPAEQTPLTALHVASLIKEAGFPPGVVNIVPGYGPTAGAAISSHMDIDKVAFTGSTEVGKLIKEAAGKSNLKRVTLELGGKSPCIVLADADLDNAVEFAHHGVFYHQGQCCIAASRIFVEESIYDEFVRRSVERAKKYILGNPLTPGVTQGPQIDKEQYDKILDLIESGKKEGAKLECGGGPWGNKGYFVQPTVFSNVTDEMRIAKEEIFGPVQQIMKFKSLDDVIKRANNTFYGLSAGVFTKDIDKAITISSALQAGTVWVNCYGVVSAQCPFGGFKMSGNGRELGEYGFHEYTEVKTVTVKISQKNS
- Test name: Competitive inhibition of human recombinant ALDH1A1 pre-incubated for 5 mins before acetaldehyde addition by continuous spectrometric assay relative to control
The following molecules are shown together with reported pKi values.
Here pKi is given on a logarithmic scale as minus log10 of the concentration in mol/L.

COC(=O)c1ccc(-c2cccn3cc(-c4ccccc4)nc23)cc1 :: 4.10

Shift focus to the following entry.
Consider the molecule Clc1ccc(-c2cccn3cc(-c4ccccc4)nc23)cc1 and give its measured pKi.
3.77

----------
- Tested on: Retinal dehydrogenase 2 (Homo sapiens, UniProt O94788)
- Test name: Competitive inhibition of human recombinant ALDH1A2 pre-incubated for 5 mins before acetaldehyde addition by continuous spectrometric assay relative to control
Readout: Ki (µM)
The reply should contain only the number, in µM.

COC(=O)c1ccc(-c2cccn3cc(-c4ccccc4)nc23)cc1 :: 0.92

Shift focus to the following entry.
Consider the molecule Clc1ccc(-c2cccn3cc(-c4ccccc4)nc23)cc1 and give its measured Ki.
27.6

----------
- Tested on: Retinal dehydrogenase 2 (Homo sapiens) (UniProt O94788)
- Test name: Inhibition of human recombinant ALDH1A2 assessed as remaining enzyme activity at 25 uM pre-incubated for 5 mins before acetaldehyde addition by continuous spectrometric assay relative to control
The following compounds are shown together with reported Activity values.

COC(=O)c1ccc(-c2cccn3cc(-c4ccc(OC)cc4)nc23)cc1 :: 75 to 100%

Form field - read-out: Activity; system: Retinal dehydrogenase 2 (Homo sapiens) (UniProt O94788); submitted item: COc1ccc(-c2cn3cccc(-c4ccc(Cl)cc4)c3n2)cc1
75 to 100%

----------
- Tested on: Retinaldehyde dehydrogenase 3 (Homo sapiens, UniProt P47895)
- Sequence (P47895 whole entry): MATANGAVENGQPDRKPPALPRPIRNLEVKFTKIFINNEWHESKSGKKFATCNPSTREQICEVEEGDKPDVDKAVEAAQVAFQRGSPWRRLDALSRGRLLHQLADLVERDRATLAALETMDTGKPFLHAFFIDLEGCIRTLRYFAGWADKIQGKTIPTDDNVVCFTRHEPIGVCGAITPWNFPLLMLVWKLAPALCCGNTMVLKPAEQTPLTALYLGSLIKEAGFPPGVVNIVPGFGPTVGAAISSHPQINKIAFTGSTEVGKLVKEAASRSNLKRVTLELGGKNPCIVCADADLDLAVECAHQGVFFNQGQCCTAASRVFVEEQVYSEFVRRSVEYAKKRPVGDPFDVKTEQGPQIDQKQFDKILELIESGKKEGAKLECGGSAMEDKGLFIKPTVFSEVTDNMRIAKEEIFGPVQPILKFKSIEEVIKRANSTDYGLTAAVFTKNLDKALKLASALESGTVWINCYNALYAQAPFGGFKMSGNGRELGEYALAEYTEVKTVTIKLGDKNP
- Test name: Inhibition of human recombinant ALDH1A3 pre-incubated for 5 mins before acetaldehyde addition by continuous spectrometric assay relative to control
The following compounds are shown together with reported pIC50 values.
Here pIC50 is given on a logarithmic scale as minus log10 of the concentration in mol/L.

c1ccc(-c2cn3cccc(-c4ccccc4)c3n2)cc1 :: 4.09
COc1cccc(-c2cn3cccc(-c4ccc(F)cc4)c3n2)c1 :: 5.14
Clc1ccc(-c2cccn3cc(-c4ccccc4)nc23)cc1 :: 5.26

Consider the compound Fc1ccc(-c2cccn3cc(-c4ccccc4)nc23)cc1 and give its measured pIC50.
5.22

Request: COC(=O)c1ccc(-c2cccn3cc(-c4ccccc4)nc23)cc1
6.18

Request: COc1cccc(-c2cn3cccc(-c4ccc(Cl)cc4)c3n2)c1
5.37

----------
- Tested on: Aldehyde dehydrogenase 1A1 (Homo sapiens)
- Test name: Inhibition of human recombinant ALDH1A1 pre-incubated for 5 mins before acetaldehyde addition by continuous spectrometric assay relative to control
- Details: read-out: IC50
Readout: IC50 (µM)
The reply should contain only the number, in µM.

Consider the compound Clc1ccc(-c2cccn3cc(-c4ccccc4)nc23)cc1 and give its measured IC50.
168

----------
- Tested on: Retinal dehydrogenase 2 (Homo sapiens) (UniProt O94788)
- Sequence (whole entry): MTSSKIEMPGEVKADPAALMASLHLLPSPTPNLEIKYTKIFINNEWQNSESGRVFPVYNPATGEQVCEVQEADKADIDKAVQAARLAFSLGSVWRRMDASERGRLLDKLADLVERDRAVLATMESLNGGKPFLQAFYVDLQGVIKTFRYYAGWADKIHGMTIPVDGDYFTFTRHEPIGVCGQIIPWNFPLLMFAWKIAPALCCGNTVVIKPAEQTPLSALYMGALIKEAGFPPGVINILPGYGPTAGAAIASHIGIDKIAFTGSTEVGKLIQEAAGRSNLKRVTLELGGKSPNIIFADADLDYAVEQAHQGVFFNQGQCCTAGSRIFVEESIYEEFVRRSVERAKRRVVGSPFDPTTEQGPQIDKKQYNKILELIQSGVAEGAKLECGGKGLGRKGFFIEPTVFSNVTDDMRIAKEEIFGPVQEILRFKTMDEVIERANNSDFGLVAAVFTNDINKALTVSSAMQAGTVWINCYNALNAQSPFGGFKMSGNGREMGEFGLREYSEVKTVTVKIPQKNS
- Test name: Inhibition of human recombinant ALDH1A2 assessed as remaining enzyme activity at 25 uM pre-incubated for 5 mins before acetaldehyde addition by continuous spectrometric assay relative to control
Readout: Activity

Worked cases, answers included:
COc1cccc(-c2cn3cccc(-c4ccc(F)cc4)c3n2)c1 :: 25 to 50%
Cc1ccc(-c2cn3cccc(-c4ccc(Cl)cc4)c3n2)cc1 :: 75 to 100%
CC(C)Cc1ccc(-c2cccn3cc(-c4ccccc4)nc23)cc1 :: 75 to 100%

Consider the molecule COc1cccc(-c2cn3cccc(-c4ccc(Cl)cc4)c3n2)c1 and give its measured Activity.
50 to 75%

Request: COc1ccc(-c2cn3cccc(-c4cc(OC)cc(OC)c4)c3n2)cc1
75 to 100%

Request: COc1cccc(-c2cn3cccc(-c4cc(OC)c(OC)c(OC)c4)c3n2)c1
75 to 100%
